Listed next: entries and their corresponding self-cleavage.
B1: Hairpin Ribozyme (parent)
chain: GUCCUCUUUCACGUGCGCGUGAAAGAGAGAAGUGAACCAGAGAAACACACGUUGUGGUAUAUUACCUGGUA

# Variants of: B1
# assay protocol: self-cleavage, relative activity (ratio to wild type); higher = more cleavage; co-transcriptional
# answer = number (no unit)

// query Kindly indicate its recorded self-cleavage. Item: A43C U67G
// result 0.13

// query # return recorded self-cleavage for entry U20G G57C
// result 0.123

// query For the variant G40C U62A , give its reported self-cleavage.
// result 0.116

// query Tell me its self-cleavage given A49U G54U as the entry.
// result 0.36

// query Entry C12G G17A needs its self-cleavage filled in; supply it.
// result 0.913

// query In one line, give reported self-cleavage of the entry G21U A47C .
// result 0.282

// query Give the reported self-cleavage for this variant. A43U U67A
// result 0.0806

// query Answer with the recorded self-cleavage for the variant listed here: U8G C48A
// result 0.146

// query Give self-cleavage for the following variant: C16A A41U
// result 1.3

// query Please list self-cleavage recorded for the variant A61G U62A
// result 0.198

// query // fetch self-cleavage given entry C50U G68C
// result 0.246

Reference source: the RNAGym collection of RNA variant scans (doi:10.7554/elife.80360)
